Tested on: Escherichia coli TOP10
method: shrunken log2 fold change of peptide-encoding DNA abundance (4.5 h post-induction vs induction); higher = less antimicrobial activity (less host growth inhibition)
experimentalParameters: time post-induction: 4.5 h; library: site-saturation at positions 5, 18, 19, 20
So basically every entry gets a class from its shrunken log2 fold change, ranges being bottom bin = under -0.2, middle bin = from -0.2 up to 0.005, top bin = 0.005 and over

Assign a bin to RRIRMRPPRLPRPRPRPHIDPRP
top bin

Assign a bin to RRIRYRPPRLPRPRPRPCEEPRP
middle bin

Assign a bin to RRIRCRPPRLPRPRPRPYMLPRP
bottom bin

Assign a bin to RRIRERPPRLPRPRPRPRHGPRP
bottom bin

Assign a bin to RRIRPRPPRLPRPRPRPDAVPRP
top bin

Assign a bin to RRIRQRPPRLPRPRPRPYHLPRP
middle bin

Assign a bin to RRIRERPPRLPRPRPRPEENPRP
top bin

Assign a bin to RRIRGRPPRLPRPRPRPNCYPRP
top bin

Assign a bin to RRIRPRPPRLPRPRPRPQGCPRP
middle bin

Assign a bin to RRIRYRPPRLPRPRPRPHTEPRP
middle bin

Assign a bin to RRIRHRPPRLPRPRPRPKPYPRP
bottom bin

Assign a bin to RRIRSRPPRLPRPRPRPCATPRP
top bin

Assign a bin to RRIRWRPPRLPRPRPRPMACPRP
middle bin

Assign a bin to RRIRRRPPRLPRPRPRPIFAPRP
top bin

Assign a bin to RRIRFRPPRLPRPRPRPCAPPRP
middle bin

Assign a bin to RRIRIRPPRLPRPRPRPFINPRP
bottom bin

Assign a bin to RRIRERPPRLPRPRPRPANLPRP
bottom bin

Assign a bin to RRIRLRPPRLPRPRPRPCNSPRP
top bin

Assign a bin to RRIRRRPPRLPRPRPRPEFQPRP
middle bin

Assign a bin to RRIRARPPRLPRPRPRPLAAPRP
top bin

Assign a bin to RRIRCRPPRLPRPRPRPFRKPRP
middle bin

Assign a bin to RRIRVRPPRLPRPRPRPQCYPRP
middle bin

Assign a bin to RRIRERPPRLPRPRPRPPMAPRP
top bin

Assign a bin to RRIRLRPPRLPRPRPRPQFHPRP
bottom bin

Assign a bin to RRIRHRPPRLPRPRPRPTYEPRP
top bin

Assign a bin to RRIRQRPPRLPRPRPRPDYPPRP
middle bin

Assign a bin to RRIRPRPPRLPRPRPRPLIHPRP
bottom bin

Assign a bin to RRIRVRPPRLPRPRPRPHSCPRP
middle bin

Assign a bin to RRIRFRPPRLPRPRPRPNVSPRP
middle bin

Assign a bin to RRIRDRPPRLPRPRPRPMKLPRP
middle bin

Assign a bin to RRIRYRPPRLPRPRPRPMQYPRP
middle bin

Assign a bin to RRIRGRPPRLPRPRPRPLIIPRP
middle bin

Assign a bin to RRIRGRPPRLPRPRPRPWLIPRP
middle bin

Assign a bin to RRIRERPPRLPRPRPRPAYNPRP
bottom bin

Assign a bin to RRIRHRPPRLPRPRPRPGIFPRP
bottom bin

Assign a bin to RRIRGRPPRLPRPRPRPNVTPRP
top bin

Assign a bin to RRIRLRPPRLPRPRPRPPRSPRP
top bin

Assign a bin to RRIRDRPPRLPRPRPRPDYKPRP
middle bin

Assign a bin to RRIRWRPPRLPRPRPRPLCPPRP
top bin

Assign a bin to RRIRIRPPRLPRPRPRPGLVPRP
top bin

Assign a bin to RRIRERPPRLPRPRPRPCGCPRP
middle bin

Assign a bin to RRIRIRPPRLPRPRPRPNMGPRP
bottom bin

Assign a bin to RRIRPRPPRLPRPRPRPFFLPRP
middle bin

Assign a bin to RRIRRRPPRLPRPRPRPMTWPRP
middle bin

Assign a bin to RRIRKRPPRLPRPRPRPHYNPRP
bottom bin

Assign a bin to RRIRARPPRLPRPRPRPVKFPRP
middle bin

Assign a bin to RRIRNRPPRLPRPRPRPFTEPRP
bottom bin

Assign a bin to RRIRERPPRLPRPRPRPWVEPRP
top bin

Assign a bin to RRIRPRPPRLPRPRPRPATYPRP
bottom bin

Assign a bin to RRIRTRPPRLPRPRPRPFWDPRP
top bin

Assign a bin to RRIRKRPPRLPRPRPRPINPPRP
top bin

Assign a bin to RRIRHRPPRLPRPRPRPVDYPRP
bottom bin

Assign a bin to RRIRFRPPRLPRPRPRPFHMPRP
middle bin

Assign a bin to RRIRERPPRLPRPRPRPCVAPRP
top bin

Assign a bin to RRIRVRPPRLPRPRPRPIFKPRP
middle bin

Assign a bin to RRIRTRPPRLPRPRPRPDTLPRP
middle bin

Assign a bin to RRIRRRPPRLPRPRPRPDKFPRP
top bin

Assign a bin to RRIRNRPPRLPRPRPRPWLSPRP
top bin

* * *

Tested on: Escherichia coli TOP10
method: shrunken log2 fold change of peptide-encoding DNA abundance (4.5 h post-induction vs induction); higher = less antimicrobial activity (less host growth inhibition)
experimentalParameters: time post-induction: 4.5 h; library: site-saturation at positions 5, 18, 19, 20
So basically every entry gets a class from its shrunken log2 fold change, ranges being band A: < -0.3; band B: ≥ -0.3 and < 0.2; band C: ≥ 0.2

Assign a bin to RRIRARPPRLPRPRPRPYFSPRP
band A

Assign a bin to RRIRTRPPRLPRPRPRPPQSPRP
band C

Assign a bin to RRIRCRPPRLPRPRPRPHETPRP
band B

Assign a bin to RRIRARPPRLPRPRPRPHHLPRP
band A

Assign a bin to RRIRYRPPRLPRPRPRPAKMPRP
band A

Assign a bin to RRIRNRPPRLPRPRPRPAREPRP
band B

Assign a bin to RRIRVRPPRLPRPRPRPTNVPRP
band A

Assign a bin to RRIRKRPPRLPRPRPRPYYGPRP
band B

Assign a bin to RRIRLRPPRLPRPRPRPHGRPRP
band B

Assign a bin to RRIRVRPPRLPRPRPRPFEQPRP
band B

Assign a bin to RRIRSRPPRLPRPRPRPVWNPRP
band A

Assign a bin to RRIRMRPPRLPRPRPRPKLGPRP
band C

Assign a bin to RRIRDRPPRLPRPRPRPLGTPRP
band C

Assign a bin to RRIRDRPPRLPRPRPRPDCTPRP
band B

Assign a bin to RRIRERPPRLPRPRPRPIFSPRP
band B

* * *

For each record, write down the corresponding shrunken log2 fold change.
Test system: Escherichia coli TOP10
method: shrunken log2 fold change of peptide-encoding DNA abundance (4.5 h post-induction vs induction); higher = less antimicrobial activity (less host growth inhibition)
experimentalParameters: time post-induction: 4.5 h; library: site-saturation at positions 5, 18, 19, 20

# shrunken log2 fold change (sequence: RRIRSRPPRLPRPRPRPPSAPRP ) is 0.646

# shrunken log2 fold change (sequence: RRIRKRPPRLPRPRPRPFSDPRP ) is 0.0546

# shrunken log2 fold change (sequence: RRIRQRPPRLPRPRPRPQWCPRP ) is 0.142

# shrunken log2 fold change (sequence: RRIRVRPPRLPRPRPRPNTVPRP ) is -0.0689

# shrunken log2 fold change (sequence: RRIRNRPPRLPRPRPRPSQHPRP ) is -0.0437

# shrunken log2 fold change (sequence: RRIRERPPRLPRPRPRPKCAPRP ) is 0.0581

# shrunken log2 fold change (sequence: RRIRLRPPRLPRPRPRPAKPPRP ) is 1.22

# shrunken log2 fold change (sequence: RRIRHRPPRLPRPRPRPGVQPRP ) is 0.00489

# shrunken log2 fold change (sequence: RRIRTRPPRLPRPRPRPKSDPRP ) is -0.146

# shrunken log2 fold change (sequence: RRIRHRPPRLPRPRPRPYWSPRP ) is -0.171

# shrunken log2 fold change (sequence: RRIRNRPPRLPRPRPRPDQEPRP ) is -0.00963

# shrunken log2 fold change (sequence: RRIRMRPPRLPRPRPRPESMPRP ) is 2.6

# shrunken log2 fold change (sequence: RRIRKRPPRLPRPRPRPFSWPRP ) is 0.0937

# shrunken log2 fold change (sequence: RRIRGRPPRLPRPRPRPSTQPRP ) is 0.82

# shrunken log2 fold change (sequence: RRIRQRPPRLPRPRPRPYSNPRP ) is -0.0703

* * *

System: Escherichia coli TOP10;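 also: peptides expressed intracellularly from a pBAD plasmid library in pooled LB shake-flask culture, induced with 0.3% L-arabinose, DNA abundance read by NGS, three biological replicates, DESeq2 with apeglm shrinkage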
method: shrunken log2 fold change of peptide-encoding DNA abundance (4.5 h post-induction vs induction); higher = less antimicrobial activity (less host growth inhibition)
experimentalParameters: time post-induction: 4.5 h; library: site-saturation at positions 5, 18, 19, 20
Decision: shrunken log2 fold change >= 0.06 yields 1, all other cases yield -1.

Assess whether reported shrunken log2 fold change for RRIRPRPPRLPRPRPRPAFGPRP sits at 0.06 or higher.
1

Assess whether reported shrunken log2 fold change for RRIRNRPPRLPRPRPRPDLLPRP sits at 0.06 or higher.
-1

Assess whether reported shrunken log2 fold change for RRIRVRPPRLPRPRPRPDIWPRP sits at 0.06 or higher.
-1

Assess whether reported shrunken log2 fold change for RRIRIRPPRLPRPRPRPILHPRP sits at 0.06 or higher.
-1

Assess whether reported shrunken log2 fold change for RRIRVRPPRLPRPRPRPEPRPRP sits at 0.06 or higher.
1

Assess whether reported shrunken log2 fold change for RRIRVRPPRLPRPRPRPSSKPRP sits at 0.06 or higher.
-1

Assess whether reported shrunken log2 fold change for RRIRARPPRLPRPRPRPVGIPRP sits at 0.06 or higher.
-1

Assess whether reported shrunken log2 fold change for RRIRIRPPRLPRPRPRPVNYPRP sits at 0.06 or higher.
-1

Assess whether reported shrunken log2 fold change for RRIRFRPPRLPRPRPRPFCLPRP sits at 0.06 or higher.
-1

Assess whether reported shrunken log2 fold change for RRIRRRPPRLPRPRPRPTALPRP sits at 0.06 or higher.
1

Assess whether reported shrunken log2 fold change for RRIRSRPPRLPRPRPRPGKAPRP sits at 0.06 or higher.
1

Assess whether reported shrunken log2 fold change for RRIRARPPRLPRPRPRPYSYPRP sits at 0.06 or higher.
-1

Assess whether reported shrunken log2 fold change for RRIRMRPPRLPRPRPRPVSNPRP sits at 0.06 or higher.
1

Reference for the values: the supplement of paper PMC9112550
